# ASSAY_PROCEDURE: Cytotoxicity against human HT1080 cells assessed as cell viability after 24 hrs by MTT assay
# Format: cell-based
# CONDITION_DESCRIPTION: HT-1080 cells
// NB: equality with 50 µM counts as n; only CC50 at 24 h strictly below is y

Before answering, review these 3 worked examples.
MOLECULE	ASSIGNED_CLASS
O=C1NC(=O)C(c2ccc(Oc3ccccc3)cc2)(N(CCO)CCO)C(=O)N1	y
O=C1NC(=O)C(c2ccc(Oc3ccccc3)cc2)(N2CCC(CO[N+](=O)[O-])CC2)C(=O)N1	y
O=C1NC(=O)C(c2ccc(Oc3ccccc3)cc2)(N2CCCC(CO)C2)C(=O)N1 (centres undefined)	y

# ---- query molecule ----
Would you kindly verify if CC50 at 24 h of O=C1NC(=O)C(c2ccc(Oc3ccccc3)cc2)(N2CCC(CO)CC2)C(=O)N1 is strictly less than 50 µM?
n

Recorded values, source ChEMBL document CHEMBL2062484.
